These entries and their values trace back to patent US20210238260.

Quick reference for KM among some proteins
assaySystem: Factor X (FX), P00742
Sequence (P00742 whole entry, looked up): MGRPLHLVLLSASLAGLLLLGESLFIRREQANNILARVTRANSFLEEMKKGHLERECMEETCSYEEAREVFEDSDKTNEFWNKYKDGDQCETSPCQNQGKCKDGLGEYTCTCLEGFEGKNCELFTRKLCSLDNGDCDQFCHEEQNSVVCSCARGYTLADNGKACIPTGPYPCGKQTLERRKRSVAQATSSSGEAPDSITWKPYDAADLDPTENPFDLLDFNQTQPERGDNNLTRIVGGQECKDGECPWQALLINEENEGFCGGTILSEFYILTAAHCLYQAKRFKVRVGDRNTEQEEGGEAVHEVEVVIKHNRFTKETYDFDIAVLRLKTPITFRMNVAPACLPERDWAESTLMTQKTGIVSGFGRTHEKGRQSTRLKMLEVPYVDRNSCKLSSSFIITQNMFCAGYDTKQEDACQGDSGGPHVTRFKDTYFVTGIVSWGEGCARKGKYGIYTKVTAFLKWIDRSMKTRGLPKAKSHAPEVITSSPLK

# protein, KM / µM
rows = [
    ("FIXa-Y155F/K228N/K247N/N249S (protein) chain 1: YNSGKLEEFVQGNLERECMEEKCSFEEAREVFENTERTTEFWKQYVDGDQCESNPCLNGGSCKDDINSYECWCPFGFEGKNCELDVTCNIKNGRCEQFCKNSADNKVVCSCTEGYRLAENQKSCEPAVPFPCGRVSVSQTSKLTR chain 2: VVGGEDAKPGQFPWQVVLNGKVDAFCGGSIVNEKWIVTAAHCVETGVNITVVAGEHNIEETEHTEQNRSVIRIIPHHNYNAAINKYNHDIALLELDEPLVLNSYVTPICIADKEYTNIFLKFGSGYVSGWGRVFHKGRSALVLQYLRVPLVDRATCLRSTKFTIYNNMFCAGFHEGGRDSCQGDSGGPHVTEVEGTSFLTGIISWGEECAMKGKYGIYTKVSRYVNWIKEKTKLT", 0.0792),
    ("FIXa-R338E/T343R/R403E (protein) chain 1: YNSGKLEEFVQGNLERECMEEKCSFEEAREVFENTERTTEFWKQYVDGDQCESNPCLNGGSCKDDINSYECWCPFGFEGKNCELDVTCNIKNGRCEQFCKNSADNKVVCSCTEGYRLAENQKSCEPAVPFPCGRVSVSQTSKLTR chain 2: VVGGEDAKPGQFPWQVVLNGKVDAFCGGSIVNEKWIVTAAHCVETGVKITVVAGEHNIEETEHTEQKRNVIRIIPHHNYNAAINKYNHDIALLELDEPLVLNSYVTPICIADKEYTNIFLKFGSGYVSGWGRVFHKGRSALVLQYLRVPLVDRATCLESTKFRIYNNMFCAGFHEGGRDSCQGDSGGPHVTEVEGTSFLTGIISWGEECAMKGKYGIYTKVSEYVNWIKEKTKLT", 0.0235),
    ("FIXa D104N/K106S/R318Y/R338E/R403E/E410N (protein) chain 1: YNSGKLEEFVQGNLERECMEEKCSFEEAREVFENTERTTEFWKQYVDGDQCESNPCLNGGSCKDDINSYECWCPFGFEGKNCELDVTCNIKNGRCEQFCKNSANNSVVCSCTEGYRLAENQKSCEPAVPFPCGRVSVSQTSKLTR chain 2: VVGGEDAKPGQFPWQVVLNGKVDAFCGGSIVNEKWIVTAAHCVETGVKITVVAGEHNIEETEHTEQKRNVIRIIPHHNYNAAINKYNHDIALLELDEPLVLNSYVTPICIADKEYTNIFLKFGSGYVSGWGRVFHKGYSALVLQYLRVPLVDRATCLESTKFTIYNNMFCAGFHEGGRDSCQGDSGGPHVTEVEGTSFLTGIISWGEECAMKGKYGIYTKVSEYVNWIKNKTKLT", 0.0385),
]
